- test.method.notes: Compound was evaluated for pharmacokinetic data, Cmax
- Type: ADME, organism-based
- condition: in vivo; read-out: Cmax
measured.parameter: Cmax (ng/mL)

1 = CCCCN(CCCC)C(=O)CN1C[C@H](c2ccc3c(c2)CCO3)[C@@H](C(=O)O)[C@@H]1c1ccc(C)c(F)c1 (stereo in doubt; 8)
2 = CCCCN(CCCC)C(=O)CN1C[C@H](c2ccc3c(c2)OCO3)[C@@H](C(=O)O)[C@@H]1c1ccc(OC)cc1
## Task Returns: the argument ( 1 or 2 ) having the larger Cmax. // return label of chosen record
## Result 2

---

- assayed.system: Endothelin-1 receptor (Rattus norvegicus, UniProt P26684)
- Sequence (P26684 whole entry): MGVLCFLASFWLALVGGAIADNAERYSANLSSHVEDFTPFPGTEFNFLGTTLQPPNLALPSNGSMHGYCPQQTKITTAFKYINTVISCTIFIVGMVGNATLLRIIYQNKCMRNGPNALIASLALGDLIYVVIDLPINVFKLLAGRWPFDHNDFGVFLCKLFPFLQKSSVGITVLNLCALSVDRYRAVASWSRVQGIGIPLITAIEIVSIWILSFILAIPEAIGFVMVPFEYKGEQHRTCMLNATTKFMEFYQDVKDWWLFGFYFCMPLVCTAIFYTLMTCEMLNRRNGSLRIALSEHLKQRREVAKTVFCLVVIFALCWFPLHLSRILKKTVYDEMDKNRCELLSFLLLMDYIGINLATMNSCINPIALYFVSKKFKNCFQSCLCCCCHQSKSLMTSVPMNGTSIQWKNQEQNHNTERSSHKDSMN
- test.method.notes: Binding affinity against endothelin A receptor in MMQ cells in rat
pIC50: −log10 of the molar value.
measured.parameter: pIC50

Use these answered entries as a reference point.
- smiles: "CCCCN(CCCC)C(=O)CN1C[C@H](c2ccc3c(c2)OCO3)[C@@H](C(=O)O)[C@@H]1c1ccc(CCC)cc1"
  pIC50: 8.97
- smiles: "CCCCN(CCCC)C(=O)CN1C[C@H](c2ccc3c(c2)OCO3)[C@@H](C(=O)O)[C@@H]1c1ccc(OC)c(F)c1"
  pIC50: 10.15
- smiles: "CCCCN(CCCC)C(=O)CN1C[C@H](c2ccc3c(c2)OCCO3)[C@@H](C(=O)O)[C@@H]1c1ccc(CC)cc1"
  pIC50: 8.28
- smiles: "CCCCN(CCCC)C(=O)CN1C[C@H](c2ccc3c(c2)OCO3)[C@@H](C(=O)O)[C@@H]1c1ccc(C(F)(F)F)cc1"
  pIC50: 8.48
- smiles: "CCCCN(CCCC)C(=O)CN1C[C@H](c2ccc3c(c2)CCO3)[C@@H](C(=O)O)[C@@H]1c1ccc(CC)cc1"
  pIC50: 9.04
- smiles: "CCCCN(CCCC)C(=O)CN1C[C@H](c2ccc3c(c2)OCC3)[C@@H](C(=O)O)[C@@H]1c1ccc(OC)cc1"
  pIC50: 8.92
- smiles: "CCCCN(CCCC)C(=O)CN1C[C@H](c2ccc3c(c2)OCO3)[C@@H](C(=O)O)[C@@H]1c1ccc(C)cc1"
  pIC50: 9.92
- smiles: "CCCCN(CCCC)C(=O)CN1C[C@H](c2ccc3c(c2)OCO3)[C@@H](C(=O)O)[C@@H]1c1ccc(OC)c(OC)c1"
  pIC50: 9.96

I = CCCCN(CCCC)C(=O)CN1C[C@H](c2ccc3c(c2)OCCO3)[C@@H](C(=O)O)[C@@H]1c1ccc(OC)cc1
II = CCCCN(CCCC)C(=O)CN1C[C@H](c2ccc3occc3c2)[C@@H](C(=O)O)[C@@H]1c1ccc(OC)cc1
III = CCCCN(CCCC)C(=O)CN1C[C@H](c2ccc3c(c2)OCO3)[C@@H](C(=O)O)[C@@H]1c1ccc(CC)cc1
IV = CCCCN(CCCC)C(=O)CN1C[C@H](c2ccc3c(c2)OCO3)[C@@H](C(=O)O)[C@@H]1c1ccc(F)c(F)c1
## Task Arrange items by their pIC50 values in increasing order. Lab note: final answer is the ordered label list.
## Result IV, I, II, III
